# Test system: PAMPA
# test conditions: Papp (x 10^-6 cm/s) – ELSD Detection / [row 4]; ELSD Detection
measured parameter: Papp (×10⁻⁶ cm/s)
Field: numeric (×10⁻⁶ cm/s). Do not append units.

Known Papp results, listed for orientation:
molecule	experimental system	Papp / ×10⁻⁶ cm/s
CCCCC[C@@H]1OC(=O)[C@@H](C)N(C)C(=O)[C@H](CCCCC)OC(=O)[C@@H](C)N(C)C(=O)[C@H](CCCCC)OC(=O)[C@@H](C)N(C)C(=O)[C@H](CCCCC)OC(=O)[C@@H](C)N(C)C1=O [Compound C1.4, ent-verticilide]	PAMPA	7.39
CCCCC[C@@H]1OC(=O)[C@@H](C)N(C)C1=O	PAMPA	15.4

For CCCCC[C@@H]1OC(=O)[C@@H](C)N(C)C(=O)[C@H](CCCCC)OC(=O)[C@@H](C)N(C)C(=O)[C@H](CCCCC)OC(=O)[C@@H](C)N(C)C1=O [Compound C1.3, ent-verticilide B1] on PAMPA, measured Papp was 4.13
